B1: neuron-derived neurotrophic factor (NENF) [human (endogenous in NTera2 and in fibroblasts)] / DJ-1 WT fused with FLAG [human] (parent complex)
chain 1: GQTPRPAERGPPVRLFTEEELARYGGEEEDQPIYLAVKGVVFDVTSGKEFYGRGAPYNALTGKDSTRGVAKMSLDPADLTHDTTGLTAKELEALDEVFTKVYKAKYPIVGYTARRILNEDGSPNLDFKPEDQPHFDIKDEF
chain 2: MASKRALVILAKGAEEMETVIPVDVMRRAGIKVTVAGLAGKDPVQCSRDVVICPDASLEDAKKEGPYDVVVLPGGNLGAQNLSESAAVKEILKEQENRKGLIAAICAGPTALLAHEIGFGSKVTTHPLAKDKMMNGGHYTYSENRVEKDGLILTSRGPGTSFEFALAIVEALNGKEVAAQVKAPLVLKD

Variants of: B1
experiment: co-immunoprecipitation (anti-FLAG IP, immunoblot with anti-NENF), band intensity; DJ-1 KO DNLCs; NENF band relative to FLAG (LC)
metric: percent of parent
Form field: result (number plus unit)

Worked cases, percent of parent given:
| mut | percent of parent |
| --- | --- |
| chain 2 V51A | 45% |
| chain 2 E163K | 0% |
| chain 2 H126A | 73% |

Continue with the variant presented below.
Can you share its percent of parent? I mean this variant: chain 2 C53A
23%

These measurements were taken from paper PMC6831851.
